# Test system: NCI-H650
# assayOverview: relative viability (nuclei count vs DMSO), 5 days (fraction); higher = more cells survive
# conditionInfo: first compound 0.8 µM
# relative viability annotations
outcomeMeasure: relative viability

1. O=c1cc(-c2cccc3c2Sc2ccccc2S3)oc(N2CCOCC2)c1 + COc1cc2c(Oc3ccc(NC(=O)C4(C(=O)Nc5ccc(F)cc5)CC4)cc3F)ccnc2cc1OCCCN1CCOCC1 [Foretinib] (partner 0.25 µM) | 1.04
2. COc1nc(C)cnc1NS(=O)(=O)c1cccnc1-c1ccc(-c2nnco2)cc1 [Zibotentan] + NC(=O)Nc1cc(-c2cccc(F)c2)sc1C(=O)N[C@H]1CCCNC1 [AZD7762] (partner 0.2 µM) | 0.943
3. O=c1cc(-c2cccc3c2Sc2ccccc2S3)oc(N2CCOCC2)c1 + CS(=O)(=O)CCNCc1ccc(-c2ccc3ncnc(Nc4ccc(OCc5cccc(F)c5)c(Cl)c4)c3c2)o1 [Lapatinib] (partner 2 µM) | 1.16
4. O=c1cc(-c2cccc3c2Sc2ccccc2S3)oc(N2CCOCC2)c1 + CCNC(=O)c1noc(-c2cc(C(C)C)c(O)cc2O)c1-c1ccc(CN2CCOCC2)cc1 [Luminespib] (partner 0.01 µM) | 0.873
5. COc1nc(C)cnc1NS(=O)(=O)c1cccnc1-c1ccc(-c2nnco2)cc1 [Zibotentan] + CS(=O)(=O)CCNCc1ccc(-c2ccc3ncnc(Nc4ccc(OCc5cccc(F)c5)c(Cl)c4)c3c2)o1 [Lapatinib] (partner 2 µM) | 1
6. COc1nc(C)cnc1NS(=O)(=O)c1cccnc1-c1ccc(-c2nnco2)cc1 [Zibotentan] + O=C(c1cc(Cc2n[nH]c(=O)c3ccccc23)ccc1F)N1CCN(C(=O)C2CC2)CC1 [Olaparib] (partner 8 µM) | 0.52
7. O=c1cc(-c2cccc3c2Sc2ccccc2S3)oc(N2CCOCC2)c1 + O=C(c1cc(Cc2n[nH]c(=O)c3ccccc23)ccc1F)N1CCN(C(=O)C2CC2)CC1 [Olaparib] (partner 8 µM) | 0.424
8. COc1nc(C)cnc1NS(=O)(=O)c1cccnc1-c1ccc(-c2nnco2)cc1 [Zibotentan] + C[C@]1(O)C[C@@H](c2nc(-c3ccc4ccc(-c5ccccc5)nc4c3)c3c(N)nccn32)C1 [Linsitinib] (partner 1 µM) | 1.02
9. O=c1cc(-c2cccc3c2Sc2ccccc2S3)oc(N2CCOCC2)c1 + C[C@]1(O)C[C@@H](c2nc(-c3ccc4ccc(-c5ccccc5)nc4c3)c3c(N)nccn32)C1 [Linsitinib] (partner 1 µM) | 0.782
